# system.under.test: Neurotensin receptor type 2 (Homo sapiens)
# test.method.notes: NTR2 agonist activity for selectivity, SAR follow-up, selectivity assay for NTR1 agonist project, imaging, image-based, set 2 (AID 602334)
# settings: NTR2-expressing cells, image-based receptor agonism assay
Active and inactive are the calls of the source. How the calls were made is not given here.
Answer with one of the outcomes given here: 1.0 (active), 0.0 (inactive)

smiles	discrete.label
COc1ccc(-c2nnc3c4cc(OC)c(OC)cc4n(Cc4ccc(C)cc4)cc2-3)cc1	1.0
COc1ccc(N2CCN(c3nc(C4CCC4)nc4cc(OC)c(OC)cc34)CC2)c(OC)c1	0.0
COc1ccc2c3nnc(-c4ccc(C)cc4)c-3cn(Cc3ccc(F)cc3)c2c1	0.0
COc1ccc2c3nnc(-c4ccc(C)cc4)c-3cn(Cc3ccc(C)cc3)c2c1	0.0

Test call, this molecule: COc1ccc(-c2nnc3c4cc(OC)c(OC)cc4n(Cc4ccccc4)cc2-3)cc1
0.0
